All values here come from paper PMC9886283.

targetOfAssay: PI3Kα (Homo sapiens)
Sequence (P42336 whole entry): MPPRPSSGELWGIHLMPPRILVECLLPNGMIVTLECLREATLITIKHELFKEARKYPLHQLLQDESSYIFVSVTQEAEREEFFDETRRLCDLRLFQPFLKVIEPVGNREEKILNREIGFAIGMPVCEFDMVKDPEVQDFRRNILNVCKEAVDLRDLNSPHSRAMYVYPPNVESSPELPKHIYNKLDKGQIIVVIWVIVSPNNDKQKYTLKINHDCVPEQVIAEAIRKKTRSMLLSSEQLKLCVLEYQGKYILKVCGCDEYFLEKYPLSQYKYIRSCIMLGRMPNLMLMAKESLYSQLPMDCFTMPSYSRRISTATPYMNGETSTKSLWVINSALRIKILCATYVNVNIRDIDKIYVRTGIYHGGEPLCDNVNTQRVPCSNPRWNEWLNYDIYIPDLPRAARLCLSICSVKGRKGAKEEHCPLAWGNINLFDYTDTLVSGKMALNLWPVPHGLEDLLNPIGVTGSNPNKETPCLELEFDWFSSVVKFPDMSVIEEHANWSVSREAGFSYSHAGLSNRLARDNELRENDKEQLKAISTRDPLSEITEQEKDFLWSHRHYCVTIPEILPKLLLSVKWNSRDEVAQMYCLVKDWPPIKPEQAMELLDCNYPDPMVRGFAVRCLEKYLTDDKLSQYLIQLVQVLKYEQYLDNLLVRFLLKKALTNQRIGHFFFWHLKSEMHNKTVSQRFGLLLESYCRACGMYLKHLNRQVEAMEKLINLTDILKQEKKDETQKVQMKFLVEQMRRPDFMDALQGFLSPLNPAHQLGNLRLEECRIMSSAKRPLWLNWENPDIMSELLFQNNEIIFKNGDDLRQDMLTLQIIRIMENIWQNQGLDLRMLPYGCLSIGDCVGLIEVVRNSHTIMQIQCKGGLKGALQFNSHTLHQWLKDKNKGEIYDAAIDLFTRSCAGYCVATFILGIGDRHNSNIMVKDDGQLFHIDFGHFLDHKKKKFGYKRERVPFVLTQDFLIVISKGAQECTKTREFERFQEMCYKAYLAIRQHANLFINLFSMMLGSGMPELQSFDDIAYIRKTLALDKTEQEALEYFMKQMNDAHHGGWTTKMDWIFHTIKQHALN
Sequence (P27986 whole entry partner): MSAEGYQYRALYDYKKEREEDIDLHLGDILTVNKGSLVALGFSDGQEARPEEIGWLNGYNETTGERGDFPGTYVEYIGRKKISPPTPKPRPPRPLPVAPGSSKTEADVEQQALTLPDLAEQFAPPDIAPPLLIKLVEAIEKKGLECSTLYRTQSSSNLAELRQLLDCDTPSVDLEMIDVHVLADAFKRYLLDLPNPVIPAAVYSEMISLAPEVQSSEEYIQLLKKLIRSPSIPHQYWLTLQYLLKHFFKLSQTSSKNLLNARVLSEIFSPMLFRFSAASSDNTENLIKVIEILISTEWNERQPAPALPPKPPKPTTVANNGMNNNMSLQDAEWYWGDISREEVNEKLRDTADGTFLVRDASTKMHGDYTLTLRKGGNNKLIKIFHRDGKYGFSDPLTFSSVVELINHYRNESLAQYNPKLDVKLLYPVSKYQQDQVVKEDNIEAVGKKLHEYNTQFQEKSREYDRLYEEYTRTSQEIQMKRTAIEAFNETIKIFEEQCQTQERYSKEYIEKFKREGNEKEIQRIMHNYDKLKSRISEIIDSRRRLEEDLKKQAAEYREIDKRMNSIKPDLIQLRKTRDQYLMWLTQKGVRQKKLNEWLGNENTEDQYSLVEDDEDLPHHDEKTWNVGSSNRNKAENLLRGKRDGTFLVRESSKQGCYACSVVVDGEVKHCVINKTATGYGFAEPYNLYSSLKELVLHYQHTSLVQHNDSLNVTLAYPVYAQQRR
assay: PI3Kα kinase assay (ADP-Glo-based biochemical assay)
experimentalSetup: ADP-Glo, n = 3 per dose; read-out: IC50 PI3Kα
pIC50: −log10 of the molar value. Structures can show the parent of a compound that is named as a salt.
readoutKind: pIC50

CC/C(=C(\c1ccccc1)c1ccc(OCCN(C)C)cc1)c1ccccc1 = 4.72
COc1ccc(CCN2CCC(Nc3nc4ccccc4n3Cc3ccc(F)cc3)CC2)cc1 = 4.74

[I] O=C(c1ccc(OCCN2CCCCC2)cc1)c1c(-c2ccc(O)cc2)sc2cc(O)ccc12 [Raloxifene HCl, raloxifene HCl]
[II] CO[C@H]1/C=C\C=C(/C)C(=O)NC2=CC(=O)C(NCCN(C)C)=C(C[C@@H](C)C[C@H](OC)[C@H](O)[C@@H](C)/C=C(\C)[C@@H]1OC(N)=O)C2=O
Compare the recorded pIC50 of I and II ; state which is larger. Mark your answer with the label of the selected entry.
I
